Tested on: SORHA (johnsongrass (seedling))
Test: Pre-plant incorporated (PPI) herbicidal activity, warm season
Format: in vivo, Sorghum halepense
Details: pre-plant incorporated; lowest tested rate with 80% or greater inhibition; about 14 days
quantityKind: PPI activity GR80, SORHA (g/ha)

CCN(CC)C(=O)n1cnc(S(=O)(=O)C(F)(F)Br)n1 30
CCN(CC)C(=O)n1cnc(S(=O)(=O)C(F)(F)SCC(=O)OC)n1 300
CCSC(F)(F)S(=O)(=O)c1ncn(C(=O)N(CC)CC)n1 30
CCN(CC)C(=O)n1cnc(S(=O)(=O)C(F)(F)SCCOC)n1 100
CCN(CC)C(=O)n1cnc(S(=O)(=O)C(F)(F)C(F)F)n1 10
C=CCC(F)(F)S(=O)(=O)c1ncn(C(=O)N(CC)CC)n1 10
CCN(CC)C(=O)n1cnc(S(=O)(=O)C(F)F)n1 30
C=C(Br)CC(F)(F)S(=O)(=O)c1ncn(C(=O)N(CC)CC)n1 100
C=C(CC(F)(F)S(=O)(=O)c1ncn(C(=O)N(CC)CC)n1)C[Si](C)(C)C 100
CCN(CC)C(=O)n1cnc(S(=O)(=O)C(F)(F)C(=O)c2ccccc2)n1 100
C=C(C)CC(F)(F)S(=O)(=O)c1ncn(C(=O)N(CC)CC)n1 300

###

System: AVEFA (wild oat)
Test: Pre-plant incorporated (PPI) herbicidal activity, cool season
Assay type: in vivo, Avena fatua
Details: Avena fatua; weed, PPI application, 100 g/ha; read-out: Percent inhibition AVEFA
quantityKind: inhibition at 100 g/ha (%)

CCN(CC)C(=O)n1cnc(S(=O)(=O)C(F)(F)Br)n1 20
C=C(C)CC(F)(F)S(=O)(=O)c1ncn(C(=O)N(CC)CC)n1 10
C=CCC(F)(F)S(=O)(=O)c1ncn(C(=O)N(CC)CC)n1 50
CCSC(F)(F)S(=O)(=O)c1ncn(C(=O)N(CC)CC)n1 75
C=C(Br)CC(F)(F)S(=O)(=O)c1ncn(C(=O)N(CC)CC)n1 30

###

Tested on: BROTE (downy brome)
Assay: Pre-emergence herbicidal activity, cool season
Format: in vivo, Bromus tectorum
Conditions: GR80 = lowest tested rate (300, 100, 30, 10 g/ha) with 80% or greater inhibition; approx. 14 days after treating; 18/13° C.
Listing of entries alongside the reported Pre-emergence activity (GR80) BROTE.
quantityKind: Pre-emergence activity (GR80) BROTE (g/ha)

COCCN(C)C(=O)n1cnc(S(=O)(=O)C(F)(F)Cl)n1 300
CCSC(F)(F)S(=O)(=O)c1ncn(C(=O)N(C)CCOC)n1 300
CCN(CC)C(=O)n1cnc(S(=O)(=O)C(F)(F)Br)n1 300
CCN(CC)C(=O)n1cnc(S(=O)(=O)C(F)(F)SC)n1 100
CN(C(=O)n1cnc(S(=O)(=O)C(F)(F)Cl)n1)C1CCCCC1 300
CCN(CC)C(=O)n1cnc(S(=O)(=O)C(F)(F)SCCOC)n1 300
COCCN(C)C(=O)n1cnc(S(=O)(=O)C(F)(F)Br)n1 100

###

Tested on: SOLNI (black nightshade)
Assay: Pre-plant incorporated (PPI) herbicidal activity, warm season
Assay type: in vivo, Solanum nigrum
Conditions: Solanum nigrum; PPI application, 100 g/ha; read-out: Percent inhibition SOLNI
# key: entry, value: inhibition at 100 g/ha
quantityKind: inhibition at 100 g/ha (%)

C=CCC(F)(F)S(=O)(=O)c1ncn(C(=O)N(CC)CC)n1 80
CCN(CC)C(=O)n1cnc(S(=O)(=O)C(F)F)n1 20
CCSC(F)(F)S(=O)(=O)c1ncn(C(=O)N(CC)CC)n1 100
CCN(CC)C(=O)n1cnc(S(=O)(=O)C(F)(F)Br)n1 0
C=C(C)CC(F)(F)S(=O)(=O)c1ncn(C(=O)N(CC)CC)n1 20
C=C(Br)CC(F)(F)S(=O)(=O)c1ncn(C(=O)N(CC)CC)n1 0
